# System: RPMI-8226 leukemia
# ASSAY DETAILS: NCI-60 one-dose screen, 48 h (100 = growth as untreated, 0 = no growth, -100 = all killed)
# DETAILS: 10 µM unless noted
This is part of a sample that, as a whole, favours compounds with a hit. Of some 83,000 tested, about 20% had one in any assay. Active and inactive are the calls of the source. How the source made its calls: active means growth percent below 10; inactive means the rest.
Measured growth by item

Consider the reported growth for these compounds:
- COMPOUND: "CC(C)c1ccc(C(=O)Nc2nc3ccc(O)cc3s2)cc1"
  growth: "28.9% (inactive)"
- COMPOUND: "C[C@H]1[C@H](C)CC[C@]2(C(=O)O)CC[C@]3(C)C(=CC[C@@H]4[C@@]5(C)C/C(=C/c6ccco6)C(=O)C(C)(C)[C@@H]5CC[C@]43C)[C@H]12"
  growth: "-19.3% [100 µM] (active)"
- COMPOUND: "CC(C)(C)c1cc(C(=O)Nc2ccccc2C(=O)NCCN)cc(C(C)(C)C)c1"
  growth: "-25% (active)"
- COMPOUND: "COc1ccc(-c2nc3ccccn3c2/C=C/C(=O)c2cc(OC)c(OC)c(OC)c2)cc1OC"
  growth: "-26% (active)"
- COMPOUND: "Oc1cc(Nc2ccnc3cc(Cl)ccc23)c2ncccc2c1"
  growth: "53.5% (inactive)"
- COMPOUND: "CCCCCCNC(=O)Nc1ncnc2c1ncn2-c1ccccc1"
  growth: "91.4% (inactive)"
- COMPOUND: "CC1(C)NCCC[C@]2(C)[C@H]3C=CC4=C5C[C@](C)(CO)CC[C@]5(C)CC[C@@]4(C)[C@]3(C)CC[C@@H]12"
  growth: "-43.8% [100 µM] (active)"
- COMPOUND: "CCOC(=O)C(c1ccccc1)N1C(=O)c2ccccc2C1=O (stereo unspecified)"
  growth: "98% (inactive)"
- COMPOUND: "O=C1Nc2ccccc2/C1=C/C(=O)c1ccc(N2CCCC2)cc1"
  growth: "15.8% (inactive)"
- COMPOUND: "N#C/C(=C(/O)CCCO)c1nc2ccccc2c(=O)[nH]1"
  growth: "91.1% (inactive)"

Ask: State the recorded growth for this entry: `CCNc1cc2c(cc1Br)-c1ccccc1C2=O`
Result: 100% (inactive)

Ask: Need growth, item `CC(C)CCSc1nc(N)nc2nc[nH]c12`
Result: 94.6% (inactive)

Ask: Recorded growth for `Cc1ccc2c(c1)/C(=N\N=C/c1cn(C(C)C)c3ccccc13)C(=O)N2` , please?
Result: 0.866% (active)

Ask: Quick one: growth of `c1coc2occoc=2o1` ?
Result: 100% (inactive)

Ask: Which growth is reported for this compound? `O=C(CCN1CCCCC1)c1ccc2ccccc2c1`
Result: 77.5% (inactive)

Ask: Need growth of `C=C(C)[C@@H]1CC[C@]2(C(N)=O)CC[C@]3(C)[C@H](CC[C@@H]4[C@@]5(C)CC[C@H](O)C(C)(C)[C@@H]5CC[C@]43C)[C@@H]12` , thanks.
Result: -19.8% [100 µM] (active)

Ask: # input compound: CCCn1ccnc1C(O)c1ccc(OCc2ccccc2)c(OC)c1 (stereo unspecified) ; wanted: its growth
Result: 93.9% (inactive)

Ask: So what's the measured growth for this one? `COc1cc2c(cc1OC(C)=O)C(=O)CCCC2`
Result: 109% (inactive)

Ask: Which measured growth value corresponds to O=C(O)CC1CCCCC1c1ccccc1 (stereo unspecified) ?
Result: 104% (inactive)

Ask: Reported growth, compound `COc1ccc(C(=O)/C=C/c2ccccn2)c(O)c1` : ____
Result: 6.35% (active)

Ask: Any idea what its growth is? The compound is `Cc1ccc(-c2cn(C/C=C3\C=CN(S(=O)(=O)c4ccccc4)CC3)nn2)cc1`
Result: 102% (inactive)
